assay: Cytotoxicity against human BE(2)-C cells after 72 hrs by MTT assay; type: functional
GI50 strictly under 20 µM means Fulfilled; at 20 µM or over means Not fulfilled.

| COMPOUND | CATEGORY |
| --- | --- |
| N#CC(Cc1ccc[nH]1)c1ccc(F)cc1 (stereo not given) | Not fulfilled |

In: Lab note: GI50 threshold 20 µM. Does this compound come in strictly under it? N#C/C(=C\c1ccc(Cl)cc1)c1ccc(Cl)c(Cl)c1
Out: Fulfilled

In: N#C/C(=C\c1ccc2ccccc2c1)c1ccc(Cl)c(Cl)c1 , same question.
Out: Fulfilled

In: N#C/C(=C\c1ccc[nH]1)c1ccc(F)cc1 , same question.
Out: Not fulfilled

In: N#C/C(=C/c1ccc2ccccc2c1)C(=O)c1ccc[nH]1 , same question.
Out: Fulfilled

In: N#CC(Cc1ccc[nH]1)c1ccc([N+](=O)[O-])cc1 (stereo not given) , same question.
Out: Not fulfilled

In: N#C/C(=C\c1ccc[nH]1)c1ccc(Cl)cc1 , same question.
Out: Not fulfilled

In: N#C/C(=C\c1ccc[nH]1)c1ccccc1 , same question.
Out: Not fulfilled

In: N#C/C(=C\c1ccc(O)cc1)c1ccc(Cl)c(Cl)c1 , same question.
Out: Not fulfilled

In: N#C/C(=C/c1ccc(Cl)c(Cl)c1)C(=O)c1ccc[nH]1 , same question.
Out: Fulfilled

In: N#C/C(=C\c1cccc(Cl)c1)c1ccc(Cl)c(Cl)c1 , same question.
Out: Fulfilled

In: N#C/C(=C\c1ccc[nH]1)c1ccc([N+](=O)[O-])cc1 , same question.
Out: Not fulfilled

In: N#CC(Cc1ccc[nH]1)c1ccc(Cl)cc1 (stereo not given) , same question.
Out: Not fulfilled

In: Cc1ccc(/C=C(\C#N)c2ccc(Cl)c(Cl)c2)cc1 , same question.
Out: Fulfilled

In: N#C/C(=C/c1ccc(O)cc1)C(=O)c1ccc[nH]1 , same question.
Out: Fulfilled

In: CCCC/C=C(\C#N)c1ccc(Cl)c(Cl)c1 , same question.
Out: Not fulfilled

In: Cc1ccc(/C=C(/C#N)C(=O)c2ccc[nH]2)cc1 , same question.
Out: Fulfilled

In: N#C/C(=C\c1ccc(Br)cc1)c1ccc(Cl)c(Cl)c1 , same question.
Out: Not fulfilled

In: N#C/C(=C\c1cc(O)cc(O)c1)c1ccc(Cl)c(Cl)c1 , same question.
Out: Not fulfilled

In: COc1ccc(/C=C(/C#N)C(=O)c2ccc[nH]2)cc1 , same question.
Out: Fulfilled

In: N#C/C(=C\c1ccncc1)c1ccc(Cl)c(Cl)c1 , same question.
Out: Fulfilled

In: N#C/C(=C/c1ccc([N+](=O)[O-])cc1)C(=O)c1ccc[nH]1 , same question.
Out: Fulfilled

In: CC(=O)Oc1ccc(/C=C(\C#N)c2ccc(Cl)c(Cl)c2)cc1 , same question.
Out: Not fulfilled

In: N#C/C(=C\c1ccc[nH]1)c1ccc(Cl)c(Cl)c1 , same question.
Out: Not fulfilled

In: N#C/C(=C/c1ccc(Cl)cc1)C(=O)c1ccc[nH]1 , same question.
Out: Not fulfilled
